# procedureDetails: A CellTox Green Cytotoxicity Assay to monitor cytotoxicity in HepG2 cells - 24 hour (AID 1224878); note: nearly all actives have a fitted effect of over 45% in size
# conditionDetails: CellTox Green fluorescence; series mostly up to 76.8 µM
Inconclusive results are not listed. Active and inactive are the calls of the source. Calls come from the whole dose curve; as a rule, active = well fitted activation curve with a large enough effect in the repeat runs; inconclusive = weak or mixed curves; inactive = flat fitted curve, though single readings scatter.
Classes used: T for active, F for inactive

1) ClC1=C(Cl)[C@]2(Cl)[C@@H]3[C@@H]4C[C@@H]([C@H]5O[C@@H]45)[C@@H]3[C@@]1(Cl)C2(Cl)Cl
T
2) CC(C)CC(C)(c1ccc(O)cc1)c1ccc(O)cc1
T
3) C=COCCCl
F
4) CCOP(=S)(OCC)OC(Cl)C(Cl)(Cl)Cl (stereo unspecified)
F
5) C[C@@H](Oc1ccc(Cl)cc1Cl)C(=O)O
F
6) FC(Cl)(Cl)Cl
F
7) CCS(=O)(=O)c1cccnc1S(=O)(=O)NC(=O)Nc1nc(OC)cc(OC)n1
F
8) O=S(=O)(c1ccc(Cl)cc1)c1ccc(Cl)cc1
F
9) CC1(C)[C@H](C(=O)O[C@H](C#N)c2cccc(Oc3ccccc3)c2)[C@@H]1/C=C(\Cl)C(F)(F)F
F
10) CC(=[OH+])/C=C(/C)[O-].CC(=[OH+])/C=C(\C)[O-].CC(=[OH+])/C=C(\C)[O-].[Al]
F
11) CCCCOP(=O)(CCCC)OCCCC
F
